All values here come from patent US5039797A.

test: Solubility in solvents; format: physicochemical; conditions: dmso, organic solvent or mixture; in water, ethanol or methanol and DSMO; read-out: upper limit of solubility
measuredQuantity: solubility

Identify measured solubility corresponding to Nc1nc2c(ncn2[C@@H]2O[C@@H]3COP(=O)(O)O[C@H]3[C@H]2OC(=O)c2ccc(C(=O)c3ccccc3)cc2)c(=O)[nH]1
~100 mM

----------
molecular target: Type III cGMP phosphodiesterase; assay: Lineweaver-Burke analysis of cGMP hydrolysis by toad photoreceptor rod outer segment membranes; type: biochemical; conditions: Table 1, rod light-activated PDEase, inventive compound; read-out: Ki for Inhibition
measuredQuantity: pKi
Remember the convention: pKi equals -log10 of concentration in molar.

Identify measured pKi corresponding to Nc1nc2c(ncn2[C@@H]2O[C@@H]3COP(=O)(O)O[C@H]3[C@H]2OC(=O)c2ccc(C(=O)c3ccccc3)cc2)c(=O)[nH]1
6.52
